Just for reference, patent US9957264B2 is where these values come from.

Measurement Target: JAK2 (recombinant purified GST-tagged catalytic domain) (Homo sapiens (Human))
Sequence (O60674 849-1124): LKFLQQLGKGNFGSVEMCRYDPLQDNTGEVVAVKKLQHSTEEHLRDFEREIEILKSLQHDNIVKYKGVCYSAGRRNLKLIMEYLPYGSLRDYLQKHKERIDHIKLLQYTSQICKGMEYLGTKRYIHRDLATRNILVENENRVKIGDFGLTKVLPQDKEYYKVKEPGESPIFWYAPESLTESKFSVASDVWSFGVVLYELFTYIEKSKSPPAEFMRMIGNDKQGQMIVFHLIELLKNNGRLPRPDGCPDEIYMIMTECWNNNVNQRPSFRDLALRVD
Test Protocol: Jak Biochemical HTRF Assay (JAK2)
Experimental Conditions: [ATP] 8.5 μM
Measurement Name: pIC50
Units for pIC50: none; it is -log10 of a concentration expressed in mol/L.

Solved entries (count: 3):
entry_smiles=N#CC[C@]1(n2nc(Nc3ccc(Cl)cc3)c3c(=O)[nH]ccc32)CC[C@@H](NCC(F)(F)F)CC1 measurement_name=pIC50 assay_value=5.99
entry_smiles=CC(C)(C)OC(=O)[C@H]1CC[C@](CC#N)(n2nc(Nc3ccc(S(C)(=O)=O)cc3)c3c(=O)[nH]ccc32)CO1 measurement_name=pIC50 assay_value=7.84
entry_smiles=CC(F)(F)C(=O)N1CCC(CC#N)(n2nc(Nc3ccc4c(c3)CN(C(C)(C)C)S4(=O)=O)c3c(=O)[nH]ccc32)CC1 measurement_name=pIC50 assay_value=10.00

[in] What value of pIC50 has been recorded for this entry: N#CC[C@]1(n2nc(Nc3ccc(Cl)cc3)c3c(=O)[nH]ccc32)CC[C@H](N2CC(F)C2)CC1
[out] 8.76

[in] I am curious: what pIC50 value has been reported for CC(C)(C)OC(=O)N1CCC(CC#N)(n2nc(Nc3ccc4c(c3)CCS4(=O)=O)c3c(=O)[nH]ccc32)CC1 ?
[out] 9.51

[in] If you can, please state the reported pIC50 value of Cc1cc(Nc2nn([C@]3(CC#N)CC[C@@H](C(=O)OC(C)(C)C)OC3)c3cc[nH]c(=O)c23)ccc1C(=O)N(C)CC(F)(F)F .
[out] 9.29

* * *

Measurement Target: JAK1 (recombinant purified GST-tagged catalytic domain) (Homo sapiens (Human), UniProt P23458)
Sequence (P23458 875-1153): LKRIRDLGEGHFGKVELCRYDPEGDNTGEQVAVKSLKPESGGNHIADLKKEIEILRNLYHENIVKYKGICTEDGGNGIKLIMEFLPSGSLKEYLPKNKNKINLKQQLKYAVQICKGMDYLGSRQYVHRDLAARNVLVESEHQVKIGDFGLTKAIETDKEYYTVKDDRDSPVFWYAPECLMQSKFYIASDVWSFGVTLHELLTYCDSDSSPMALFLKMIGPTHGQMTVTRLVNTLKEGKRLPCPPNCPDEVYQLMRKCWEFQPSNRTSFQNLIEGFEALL
Test Protocol: Jak Biochemical HTRF Assay (JAK1)
Experimental Conditions: [ATP] 31.8 μM
The following compounds are listed with their measured IC50 values.
Reply with just the number (in nM).

entry_smiles=CN(C)S(=O)(=O)c1cccc(Nc2nn(C3(CC#N)CCN(Cc4cccnc4)CC3)c3cc[nH]c(=O)c23)c1 measurement_name=IC50 unit_descriptor=nM assay_value=1.19
entry_smiles=N#CC[C@]1(n2nc(Nc3ccc(OC(F)(F)F)cc3)c3c(=O)[nH]ccc32)CC[C@@H](Nc2ccccc2)CC1 measurement_name=IC50 unit_descriptor=nM assay_value=120
entry_smiles=Cc1cc(Nc2nn(C3(CC#N)CCN(C(=O)OC(C)(C)C)CC3)c3cc[nH]c(=O)c23)ccc1C(=O)N1C2CCC1COC2 measurement_name=IC50 unit_descriptor=nM assay_value=0.27

Proceed to the following item.
[in] Using the record for Cc1cc(Nc2nn([C@]3(CC#N)CCCOC3)c3cc[nH]c(=O)c23)ccc1C(=O)N1CCOCC1 , report its IC50.
[out] 0.34

* * *

Measurement Target: JAK1 (recombinant purified GST-tagged catalytic domain) (Homo sapiens (Human))
Test Protocol: Jak Biochemical HTRF Assay (JAK1)
Experimental Conditions: [ATP] 31.8 μM
Measurement Name: pIC50
By convention, pIC50 is the negative base-10 log of a molar concentration.

Check out these entries, answers already filled in.
compound="CSC(C)C(=O)N1CCC(CC#N)(n2nc(Nc3ccc(S(=O)(=O)N(C)C)cc3)c3c(=O)[nH]ccc32)CC1 (stereo not shown) [Example 9-24]" assay_value=9.85
compound="CCOC(=O)C(C)(C)N(C)S(=O)(=O)c1ccc(Nc2nn(C3(CC#N)CCCC3)c3cc[nH]c(=O)c23)cc1 [Example 5-139]" assay_value=9.12
compound="CNc1nn(C2(CC#N)CCN(C(=O)OC(C)(C)C)CC2)c2cc[nH]c(=O)c12 [Example 2-5]" assay_value=7.69
compound="CN(C)S(=O)(=O)c1ccc(Nc2nn(C3(CC#N)CCN(C(=O)C4CC4)CC3)c3cc[nH]c(=O)c23)cc1 [Example 9-6]" assay_value=10.10
compound="N#CC[C@@]1(n2nc(Nc3ccc(S(=O)(=O)C4CCCC4)cc3)c3c(=O)[nH]ccc32)CCCOC1 [Example 5-191]" assay_value=9.80
compound="CC(C)OC(=O)N1CCC(CC#N)(n2nc(Nc3ccnc(F)c3)c3c(=O)[nH]ccc32)CC1 [Example 13-1]" assay_value=9.66

[in] Query (compound): CO[C@@H]1CCN(C(=O)c2ccc(Nc3nn([C@]4(CC#N)CCCOC4)c4cc[nH]c(=O)c34)cc2C)C1 [Example 5-117] ; field requested: pIC50
[out] 9.35
